FYI, the data here is from BigSolDB 2.1.

details: in DMSO, 308.2 K
Recorded metric: solubility (mole fraction)
Answer field: number only, no words.

Please report solubility (mole fraction) for the following compound: Cn1c([N+](=O)[O-])cnc1N1CCN(S(C)(=O)=O)C1=O
0.0987

----------
conditions: in PEG-400, 308.2 K
Recorded metric: solubility (mole fraction)
// return a plain number; no unit text

Give solubility (mole fraction) for Cn1c([N+](=O)[O-])cnc1N1CCN(S(C)(=O)=O)C1=O
0.0343

----------
details: in formamide, 313.2 K
Recorded metric: solubility (mole fraction)
// return just the number, without any unit appended

For the molecule Cn1c([N+](=O)[O-])cnc1N1CCN(S(C)(=O)=O)C1=O , give its reported solubility (mole fraction).
0.109
